- tested target: UniProtKB P37058
- Sequence (P37058 whole entry): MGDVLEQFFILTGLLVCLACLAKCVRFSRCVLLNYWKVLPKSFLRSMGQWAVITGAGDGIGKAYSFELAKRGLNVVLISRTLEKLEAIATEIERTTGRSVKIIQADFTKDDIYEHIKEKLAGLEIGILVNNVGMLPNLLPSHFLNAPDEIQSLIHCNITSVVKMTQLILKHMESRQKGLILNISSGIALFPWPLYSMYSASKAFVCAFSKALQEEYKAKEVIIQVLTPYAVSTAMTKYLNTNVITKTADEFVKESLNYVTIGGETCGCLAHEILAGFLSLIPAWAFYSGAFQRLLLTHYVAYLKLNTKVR
pIC50: −log10 of the molar value.
readout label: pIC50

Observe how each entry below is paired with its result.
[[record]]
molecule = "O=c1c(O)c(-c2ccc(O)c(O)c2)oc2cc(O)ccc12"
endpoint_value = 4.49

[[record]]
molecule = "O=c1cc(-c2ccccc2)oc2ccc(O)cc12 [6-hydroxy-2-phenyl-4H-chromen-4-one]"
endpoint_value = 4.79


I: O=C1C=CC(=O)C(c2ccccc2)=C1
II: C#CCC1(C(=O)OC(=C(c2ccccc2)c2ccccc2)c2ccccc2)CC(=O)NC1=O (configuration not stated)
III: O=c1c(-c2ccc(O)cc2)coc2cc(O)cc(O)c12
IV: Oc1ccc(O)c(-c2ccccc2)c1 [2-Phenylhydroquinone, 7]
# ascending order, key=pIC50 Put the labels in the order asked and list them.
III, IV, II, I
(III: 4.52, IV: 4.83, II: 5.04, I: 5.24)
